Tested on: Monoclonal antibody (mAb)
Assay: Binding affinity against human monoclonal antibody (mAb)-11E6

molecule: CO[C@H]1C[C@H](O[C@H]2CC[C@@]3(C)[C@H](CC[C@@H]4[C@@H]3CC[C@]3(C)[C@@H](C5=CC(=O)OC5)[C@@H](OC(C)=O)C[C@]43O)C2)O[C@@H](C)[C@@H]1O
IC50 ratio: 3100

molecule: C[C@]12C[C@@H](O)[C@H]3[C@@H](CC[C@]4(O)C[C@@H](O)C[C@@H](O)[C@]34CO)[C@@]1(O)CC[C@@H]2C1=CC(=O)OC1
IC50 ratio: 6600

molecule: C[C@]12CC[C@H](O)C[C@H]1CC[C@@H]1[C@@H]2CC[C@]2(C)[C@@H](C3=CC(=O)OC3)CC[C@]12O [DIGITOXIGENIN]
IC50 ratio: 14

molecule: C[C@@H]1O[C@@H](O[C@H]2C[C@@H](O)[C@]3(CO)[C@H]4[C@H](O)C[C@]5(C)[C@@H](C6=CC(=O)OC6)CC[C@]5(O)[C@@H]4CC[C@]3(O)C2)[C@H](O)[C@H](O)[C@H]1O
IC50 ratio: 38000

molecule: C[C@@H]1O[C@@H](O[C@@H]2C=C3CC[C@@H]4[C@H](CC[C@]5(C)[C@@H](c6ccc(=O)oc6)CC[C@]45O)[C@@]3(C)CC2)[C@H](O)[C@H](O)[C@H]1O
IC50 ratio: 800

molecule: CC(=O)O[C@H]1CC[C@]2(C=O)[C@H]3CC[C@]4(C)[C@@H](C5=CC(=O)OC5)CC[C@]4(O)[C@@H]3CC[C@]2(O)C1
IC50 ratio: 18

molecule: C[C@H]1O[C@@H](O[C@@H]2CC[C@@]3(O)CC[C@@H]4[C@H](CC[C@]5(C)[C@@H](C6=CC(=O)OC6)CC[C@]45O)[C@@]3(C=O)C2)C[C@H](O)[C@@H]1O
IC50 ratio: 2500

molecule: C[C@H]1O[C@@H](O[C@H]2[C@@H](O)C[C@H](O[C@H]3[C@@H](O)C[C@H](O[C@H]4CC[C@@]5(C)[C@H](CC[C@@H]6[C@@H]5CC[C@]5(C)[C@@H](C7=CC(=O)OC7)[C@@H](O)C[C@]65O)C4)O[C@@H]3C)O[C@@H]2C)C[C@H](O)[C@@H]1O
IC50 ratio: 73

molecule: C[C@]12CC[C@H](O)C[C@H]1CC[C@@H]1[C@@H]2C[C@@H](O)[C@]2(C)[C@@H](C3=CC(=O)OC3)CC[C@]12O [DIGOXIGENIN]
IC50 ratio: 6.2

molecule: C[C@]12C[C@H](O)[C@H]3[C@@H](CCC4=CC(=O)CC[C@@]43C)[C@@H]1CC[C@@H]2C(=O)CO
IC50 ratio: 970

molecule: C[C@]12CC[C@@H](O)C[C@@H]1CC[C@@H]1[C@@H]2CC[C@]2(C)C(=O)CC[C@@H]12
IC50 ratio: 1800

* * *

Tested on: Monoclonal antibody (mAb)
Experiment: Binding affinity against human monoclonal antibody (mAb)-11E6
Activity calls are given as the source filed them. The rule behind the calls is not given here.
metric: IC50 ratio

molecule: CC1CC(O[C@H]2CC[C@@]3(C)[C@H](CC[C@@H]4[C@@H]3CC[C@]3(C)[C@@H](C5=CC(=O)OC5)CC[C@]43O)C2)CC(O)C1O (stereo partly specified)
result: 25

molecule: CC(C)CCC[C@@H](C)[C@H]1CC[C@H]2[C@@H]3CC=C4C[C@@H](O)CC[C@]4(C)[C@H]3CC[C@]12C
result: inactive

molecule: C[C@]12CCC(=O)C=C1CC[C@@H]1[C@@H]2[C@@H](O)C[C@]2(C=O)[C@@H](C(=O)CO)CC[C@@H]12
result: 760

molecule: C[C@]12CC[C@@H]3c4ccc(O)cc4CC[C@H]3[C@@H]1CC[C@@H]2O
result: inactive

molecule: CC(=O)O[C@H]1C[C@H](O[C@H]2CC[C@@]3(C)[C@H](CC[C@@H]4[C@@H]3C[C@@H](O)[C@]3(C)C(C5=CC(=O)OC5)CC[C@]43O)C2)O[C@H](C)[C@H]1O[C@H]1C[C@H](O)[C@H](O[C@H]2C[C@H](O)[C@H](O)[C@@H](C)O2)[C@@H](C)O1 (stereo partly specified)
result: 1.5

molecule: C[C@H]1O[C@@H](O[C@H]2CC[C@@]3(C)[C@H](CC[C@@H]4[C@@H]3C[C@@H](O)[C@]3(C)[C@@H](C5=CC(=O)OC5)CC[C@]43O)C2)C[C@H](O)[C@@H]1O
result: 0.9

* * *

Test system: Monoclonal antibody (mAb)
Assay: Binding affinity against human monoclonal antibody (mAb)-11E6

molecule: C[C@]12CCC(=O)C=C1CC[C@@H]1[C@@H]2[C@@H](O)C[C@@]2(C)[C@H]1CC[C@]2(O)C(=O)CO
measurement.target: Monoclonal antibody (mAb)
IC50 ratio: 3700
--
molecule: CC(=O)O[C@H]1C[C@H](O[C@H]2[C@@H](O)C[C@H](O[C@H]3[C@@H](O)C[C@H](O[C@H]4CC[C@@]5(C)[C@H](CC[C@@H]6[C@@H]5CC[C@]5(C)[C@@H](C7=CC(=O)OC7)CC[C@]65O)C4)O[C@@H]3C)O[C@@H]2C)O[C@H](C)[C@H]1O
measurement.target: Monoclonal antibody (mAb)
IC50 ratio: 20
--
molecule: CC(=O)[C@H]1CC[C@H]2[C@@H]3CCC4=CC(=O)CC[C@]4(C)[C@H]3CC[C@]12C
measurement.target: Monoclonal antibody (mAb)
IC50 ratio: 100
--
molecule: C[C@]12CC[C@H](O)CC1CC[C@@H]1[C@@H]2CC[C@]2(C)[C@@H](C3=CC(=O)OC3)CC[C@]12O (single isomer, unassigned)
measurement.target: Monoclonal antibody (mAb)
IC50 ratio: 6.7
--
molecule: C[C@@H]1O[C@H](O[C@H]2CC[C@@]3(C)[C@H](CC[C@@H]4[C@@H]3CC[C@]3(C)[C@@H](C5=CC(=O)OC5)CC[C@]43O)C2)[C@@H](O)[C@@H](O)[C@@H]1O
measurement.target: Monoclonal antibody (mAb)
IC50 ratio: 29

* * *

The following compounds are shown together with reported IC50 ratio values.
Test system: Monoclonal antibody (mAb)
Assay: Binding affinity against human monoclonal antibody (mAb)-5C2

compound: C[C@]12CCC(=O)C=C1CC[C@@H]1[C@@H]2[C@@H](O)C[C@]2(C=O)[C@@H](C(=O)CO)CC[C@@H]12
IC50 ratio: 550

compound: CC(=O)O[C@H]1C[C@]2(O)[C@@H]3CC[C@@H]4C[C@@H](O[C@@H]5C[C@H](O)[C@H](O[C@H]6C[C@H](O)[C@H](O[C@H]7C[C@H](O)[C@H](O)[C@@H](C)O7)[C@@H](C)O6)[C@@H](C)O5)CC[C@]4(C)[C@H]3CC[C@]2(C)[C@H]1C1=CC(=O)OC1
IC50 ratio: 290

compound: CC(=O)O[C@H]1C[C@H](O[C@H]2CC[C@@]3(C)[C@H](CC[C@@H]4[C@@H]3C[C@@H](O)[C@]3(C)C(C5=CC(=O)OC5)CC[C@]43O)C2)O[C@H](C)[C@H]1O[C@H]1C[C@H](O)[C@H](O[C@H]2C[C@H](O)[C@H](O)[C@@H](C)O2)[C@@H](C)O1 (some centres undefined)
IC50 ratio: 0.9

* * *

Tested on: Monoclonal antibody (mAb)
Experiment: Binding affinity against human monoclonal antibody (mAb)-1B3
metric: IC50 ratio

molecule: CC(=O)O[C@H]1C[C@H](O[C@H]2[C@@H](O)C[C@H](O[C@H]3[C@@H](O)C[C@H](O[C@H]4CC[C@@]5(C)[C@H](CC[C@@H]6[C@@H]5CC[C@]5(C)[C@@H](C7=CC(=O)OC7)CC[C@]65O)C4)O[C@@H]3C)O[C@@H]2C)O[C@H](C)[C@H]1O
result: 3.9
--
molecule: CC(=O)O[C@H]1C[C@H](O[C@H]2CC[C@@]3(C)[C@H](CC[C@@H]4[C@@H]3C[C@@H](O)[C@]3(C)C(C5=CC(=O)OC5)CC[C@]43O)C2)O[C@H](C)[C@H]1O[C@H]1C[C@H](O)[C@H](O[C@H]2C[C@H](O)[C@H](O)[C@@H](C)O2)[C@@H](C)O1 (stereo not given in full)
result: 0.9
--
molecule: C[C@]12C[C@@H](O)[C@H]3[C@@H](CC[C@]4(O)C[C@@H](O)C[C@@H](O)[C@]34CO)[C@@]1(O)CC[C@@H]2C1=CC(=O)OC1
result: 52000
--
molecule: CC1CC(O[C@H]2CC[C@@]3(C)[C@H](CC[C@@H]4[C@@H]3CC[C@]3(C)[C@@H](C5=CC(=O)OC5)CC[C@]43O)C2)CC(O)C1O (stereo not given in full)
result: 36

* * *

Each record here notes measured Relative Ki.
Test system: Monoclonal antibody (mAb)
Experiment: Binding affinity against murine monoclonal antibody (mAb)-40-50

compound: C[C@]12CC[C@H](O)C[C@H]1CC[C@@H]1[C@@H]2CC[C@]2(C)[C@@H](C3=CC(=O)OC3)[C@@H](O)C[C@]12O
Relative Ki: 93
//
compound: C[C@H]1O[C@@H](O[C@H]2[C@@H](O)C[C@H](O[C@H]3[C@@H](O)C[C@H](O[C@H]4CC[C@@]5(C)[C@H](CC[C@@H]6[C@@H]5C[C@@H](O)[C@]5(C)[C@@H](C7=CC(=O)OC7)CC[C@]65O)C4)O[C@@H]3C)O[C@@H]2C)C[C@H](O)[C@@H]1O
Relative Ki: 1
//
compound: C[C@]12CC[C@@H](O)C[C@H]1CC[C@@H]1[C@@H]2C[C@@H](O)[C@]2(C)[C@@H](C3=CC(=O)OC3)CCC12O (stereo partly drawn)
Relative Ki: 12
